PROTOCOL NOTES: Inhibition of HIV1 3B protease infected in human MT4 cells assessed as protection from virus induced cytopathogenicity measured after 5 days post infection by MTT assay
Consider the following compounds; for each one, report its pEC50.
Give bare numbers, as −log10 of the molar value.

| STRUCTURE AS SMILES | pEC50 |
| --- | --- |
| CC(C)[C@H](NC(=O)N(C)Cc1c[se]c(-c2ccccc2)n1)C(=O)N[C@@H](Cc1ccccc1)C[C@H](O)[C@H](Cc1ccccc1)NC(=O)OCc1cncs1 | 6.77 |

Turning now to a further compound:
Q: Sample CC(C)c1nc(CN(C)C(=O)N[C@H](C(=O)N[C@@H](Cc2ccccc2)C[C@H](O)[C@H](Cc2ccccc2)NC(=O)OCc2cncs2)C(C)C)c[se]1 — what was its pEC50?
A: 6.26
